Test: Cytotoxicity, MTT assay in CEM-T4 cells
Details: human
Description: Evaluation of anti-HIV activity consisted of measurements of p24 antigen using the Genscreen ULTRA HIV Ag-Ab Kit. […] We included betulin and betulinic acid in our studies in order to broaden the structure-activity study. BVM, the first HIV-1 maturation inhibitor, was applied as a reference compound. […]
Entries and their CC50 at 7 days values follow.
Endpoint label: CC50 at 7 days

Molecule	Measurement
C=C(CP(=O)(OCC)OCC)C1CCC2(C(=O)O)CCC3(C)C(CCC4C5(C)CCC(OC(=O)CCC(C)(C)C(=O)O)C(C)(C)C5CCC43C)C12 (centres unmarked) [Compound 14c]	> 68 µM
C=C(C)[C@@H]1CC[C@]2(CO)CC[C@]3(C)[C@H](CC[C@@H]4[C@@]5(C)CC[C@H](O)C(C)(C)[C@@H]5CC[C@]43C)[C@@H]12 [betulin, lup-20(29)-ene-3β,28-diol, reference compound]	46 µM
C=C(CP(=O)(OCC)OCC)C1CCC2(C(=O)O)CCC3(C)C(CCC4C5(C)CCC(OC(=O)CC(C)(C)CC(=O)O)C(C)(C)C5CCC43C)C12 (centres unmarked) [Compound 14b]	> 68 µM
C=C(COP(=O)(OCC)OCC)C1CCC2(C(=O)O)CCC3(C)C(CCC4C5(C)CCC(OC(=O)CC(C)(C)C(=O)O)C(C)(C)C5CCC43C)C12 (centres unmarked) [Compound 12a]	52 µM
C=C(COP(=O)(OCC)OCC)C1CCC2(C(=O)O)CCC3(C)C(CCC4C5(C)CCC(O)C(C)(C)C5CCC43C)C12 (centres unmarked)	18 µM
